Recorded IC50 for the following compounds
target: human M1 receptor (Homo sapiens, UniProt P11229); assay: In vitro functional assay of muscarinic acetylcholine receptor activity (aequorin calcium flux, reversal of EC80 acetylcholine response); type: cell-based; settings: CHO-K1 cells stably expressing human M1 receptor with aequorin; acetylcholine at EC80; calcium flux (luminescence); read-out: M1 IC50
Sequence (P11229 whole entry): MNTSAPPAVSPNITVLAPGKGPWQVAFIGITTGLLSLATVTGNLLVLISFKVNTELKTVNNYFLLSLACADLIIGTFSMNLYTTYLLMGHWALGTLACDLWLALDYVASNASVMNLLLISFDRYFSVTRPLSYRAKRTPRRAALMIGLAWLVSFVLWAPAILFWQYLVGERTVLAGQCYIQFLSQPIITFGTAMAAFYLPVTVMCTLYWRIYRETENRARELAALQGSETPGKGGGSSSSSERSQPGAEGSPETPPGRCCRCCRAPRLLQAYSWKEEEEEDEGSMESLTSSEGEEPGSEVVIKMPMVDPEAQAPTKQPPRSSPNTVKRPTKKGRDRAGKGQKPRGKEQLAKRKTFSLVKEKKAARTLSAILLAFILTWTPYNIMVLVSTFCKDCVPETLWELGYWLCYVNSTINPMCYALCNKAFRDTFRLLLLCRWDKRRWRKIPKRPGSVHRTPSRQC

Completed entries (count: 2):
{"compound": "N#Cc1ccc(N2C3CCC2CN(C(=O)COCC2(c4cccc5ncnn45)CC2)C3)nc1 [Example 232]", "result": "< 10 nM"}
{"compound": "N#Cc1ccc(N2[C@@H]3CC[C@H]2CN(C(=O)CCNC2(c4ccc(F)cn4)CC2)C3)nc1 [Example 29]", "result": "1000 to 10000 nM"}

Task item: Record lookup: for human M1 receptor (Homo sapiens, UniProt P11229), what IC50 belongs to COc1ccncc1C1(OCC(=O)N2CC3CCC(C2)N3c2ccc(C#N)cn2)CCC1 [Example 258] ?
Reply: < 10 nM

Task item: # query: IC50 | item N#Cc1ccc(N2C3CCC2CN(C(=O)COC2(c4c(F)cnc(Br)c4F)CCC2)C3)nc1 [Example 270] | system: human M1 receptor (Homo sapiens, UniProt P11229)
Reply: < 10 nM

Task item: Any idea what IC50 came out for N#Cc1ccc(N2[C@@H]3CC[C@H]2CN(C(=O)CCNC2(c4ccc(Cl)c(Cl)c4)CC2)C3)nc1 [Example 10] on human M1 receptor (Homo sapiens, UniProt P11229)?
Reply: < 10 nM

Task item: Under human M1 receptor (Homo sapiens, UniProt P11229): IC50 value of N#Cc1ccc(N2C3CCC2CN(C(=O)COC2(c4ccccc4C#N)CC2)C3)nc1 [Example 294] ?
Reply: 100 to 1000 nM

Task item: Observed IC50 on human M1 receptor (Homo sapiens, UniProt P11229) for N#Cc1ccc(N2C[C@@H]3C[C@H]2CN3C(=O)CNC2(c3ccc(F)cc3F)CC2)nc1 [Example 82] , please.
Reply: > 1000 nM

Task item: // map N#Cc1ccc(N2C3CC2CN(C(=O)CNC2(c4ccc(F)cc4F)CC2)C3)nc1 [Example 79] to recorded IC50 (system: human M1 receptor (Homo sapiens, UniProt P11229))
Reply: 1000 to 10000 nM
